Exercise: state measured fold activation, T-cell proliferation, 33 nM, FcgR anchored, donor 4 for each of the binders provided.
Target: T1, human GITR (amino acids M1-V241, NCBI Accession #NP_004186.1) expressed on cells (human, UniProt Q9Y5U5 26-241)
T1 sequence: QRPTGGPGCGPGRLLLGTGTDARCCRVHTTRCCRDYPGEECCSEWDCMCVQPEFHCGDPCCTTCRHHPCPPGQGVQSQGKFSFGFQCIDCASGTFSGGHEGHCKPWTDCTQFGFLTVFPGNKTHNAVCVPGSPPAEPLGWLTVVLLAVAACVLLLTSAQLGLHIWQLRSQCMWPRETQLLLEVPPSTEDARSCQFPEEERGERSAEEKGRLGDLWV
Assay: cell-based or functional assay
Could you give me the number in fold? Just the number is fine.

Data request: Consider the binder H4H14508P (antibody, human IgG4, V domains shown, human IgG4 (H4H)) VH: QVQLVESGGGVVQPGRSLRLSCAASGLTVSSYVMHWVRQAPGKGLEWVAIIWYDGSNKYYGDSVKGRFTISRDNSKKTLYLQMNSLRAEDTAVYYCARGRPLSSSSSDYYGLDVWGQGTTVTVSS VL: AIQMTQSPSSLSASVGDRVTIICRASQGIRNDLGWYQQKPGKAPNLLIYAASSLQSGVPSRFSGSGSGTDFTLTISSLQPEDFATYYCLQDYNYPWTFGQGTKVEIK and give its measured fold activation, T-cell proliferation, 33 nM, FcgR anchored, donor 4.
Data returned: 1.8

Data request: Fill blank: measured fold activation, T-cell proliferation, 33 nM, FcgR anchored, donor 4 of the binder H4H14476P (antibody, human IgG4, V domains shown, human IgG4 (H4H)) VH: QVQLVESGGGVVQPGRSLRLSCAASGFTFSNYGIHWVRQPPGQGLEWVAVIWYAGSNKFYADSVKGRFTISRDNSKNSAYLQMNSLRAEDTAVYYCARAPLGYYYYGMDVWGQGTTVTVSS VL: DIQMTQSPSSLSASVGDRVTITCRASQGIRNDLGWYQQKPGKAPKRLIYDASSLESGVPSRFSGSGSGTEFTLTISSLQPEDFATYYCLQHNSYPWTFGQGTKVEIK is ____.
Data returned: 0.8

Data request: Entry H4H14469P (antibody, human IgG4, V domains shown, human IgG4 (H4H)) VH: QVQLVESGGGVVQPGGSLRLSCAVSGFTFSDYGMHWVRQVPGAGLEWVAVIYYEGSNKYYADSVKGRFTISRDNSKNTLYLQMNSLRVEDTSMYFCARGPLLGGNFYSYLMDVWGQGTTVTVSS VL: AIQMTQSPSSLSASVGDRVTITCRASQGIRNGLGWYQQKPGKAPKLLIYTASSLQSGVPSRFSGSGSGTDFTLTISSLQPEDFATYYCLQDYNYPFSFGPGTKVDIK : reported fold activation, T-cell proliferation, 33 nM, FcgR anchored, donor 4 = ?
Data returned: 1.5

Data request: Value lookup for fold activation, T-cell proliferation, 33 nM, FcgR anchored, donor 4; key = H4H14475P (antibody, human IgG4, V domains shown, human IgG4 (H4H)) VH: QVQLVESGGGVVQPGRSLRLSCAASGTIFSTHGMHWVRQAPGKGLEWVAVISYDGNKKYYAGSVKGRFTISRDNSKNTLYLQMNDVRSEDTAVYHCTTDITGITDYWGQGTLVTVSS VL: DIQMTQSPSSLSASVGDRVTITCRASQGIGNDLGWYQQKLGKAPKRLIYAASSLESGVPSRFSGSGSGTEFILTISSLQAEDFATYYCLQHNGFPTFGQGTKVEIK
Data returned: 1.6
